These measurements were taken from patent US20240059762A1.

Exercise: for every item that follows, state its recorded koff.
assaySystem: T1, Recombinant SARS-CoV-2 N protein His tagged (SARS-CoV-2, UniProt P0DTC9 1-419)
T1 construct: also called nucleocapsid (N) protein; recombinant HIS tagged SARS-CoV-2 N protein
assayProtocol: BLI (Octet Red 96E), mAb on anti-mouse Fc biosensor, N protein in solution, global 1:1 fit
One number for each entry, in s⁻¹.

Some solved entries appear below for comparison.
Enquiry: I am curious: what koff value has been reported for SCT-Pa17 (antibody, mouse IgG1, kappa, V domains shown) VH: QVQLQQPGAELVKPGASVKLSCKASGYAFTSSWINWVKRRPGQGLEWIGNVYPRSSSPNYNEKFKGKATLTVDTSSSTAYMQLSSLTSDDSAVYFCARGYGSYWYFDVWGAGTSVTVSS VL: DIQMTQSSSSFSVSLGDRVTITCKASEDIYNRLAWYQQKPGNAPRLLISGATTLETGVPSRFSGSGSGKDYALSITSLQTEDVSTYYCQEYWSLSPTFGGGTKLEIKR ?
Return: 0.000461

Enquiry: I am curious: what koff value has been reported for SCT-Pa20 (antibody, mouse IgG1, kappa, V domains shown) VH: QVQLQQPGAELVKPGASVKLSCKASGYTFTDYWINWVKQRPGQGLEWIGNIYPGSSDTNYNEKFKRKATLTVDTSSSTAYMQLSSLTSDDSAVYYCARRPLFHAMDYWGQGTSVTVSS VL: DIVLTQSPASLAVTLGQRATISCKASQSINYNGDNYMHWFQQKPGQPTKLLIYTASNLESGVPDRFSGSGSGTDFTLNIHPVEEEDAATYYCQQSKEFPWTFGGGTKLEIKR ?
Return: 3.09e-06

Could you report koff for every entry in the following list?
1. SCT-Pa14 (antibody, mouse IgG1, kappa, V domains shown) VH: EVQLQQSGAELVSPGASVKLSCTASGFNIKDDYMHWVKQRPEQGLEWIGRIDPANGNTKYAPKFQDKATITADTSSNTAYLQLSSLTSEDTAVYYCFYSFYIPYTMDFWGQGTSVTVSS VL: ENVLTQSPAIMSATLGEKVTMSCRASSNVKYMYWYQQKSGASPKLWIYYTSNLTSGVPARFSGSGSGTSYSLTISSVEAEDAATYYCQQFTSSPYTFGSGTKLEIKR
2. SCT-Pa08 (antibody, mouse IgG1, kappa, V domains shown) VH: QVQLHQSGAELVKPGASVKLSCKASGYTFTEYSIHWVKQRSGQDLEWIGWFNPGTGSIKYNEKFKDKATLTADKSSSTVYMELSRLTSEDSAVYFCARHGGRWVIQWNFDVWGTGTTVTVSS VL: DIVMSQSPSSLAVSVGEKVTMSCKSSQNLLYSSNQKNFLAWYQQRPGQSPKLLIYWASTRESGVPDRFTGSGTGTDFTLTISSVKAEDLAVYYCQQYYRYPFTFGSGTKLEIKR
3. SCT-Pa03 (antibody, mouse IgG1, kappa, V domains shown) VH: QVQLKQSGAELVRPGASVKLSCKASGYTFTDYYINWVKQRPGQGLEWIARIYPGNNYAYYDEKFKGKATLTAEKSSSTAYMQLSSLTSEDSAVYFCAKDDGYRFAYWGQGTLVTVSA VL: DIQMTQSSSYLSVSLGGRVTITCKASDHINNWLAWYQQKPGNAPRLLISGATSLETGVPSRFSGSGSGKDYTLSITSLQTEDVATYYCQQYWSTPPTFGGGTKLEIKR
4. SCT-Pa09 (antibody, mouse IgG1, kappa, V domains shown) VH: QVQLQQPGAELVKPGTSVRLSCQASGYTFTSSWIHWVKQRTGQGLEWIGEISLTNGDINYNEKFTSKATLTVDKSSSTAYMQLSSLTSEDSAVYYCTIIPDGYSLYWYFDVWGAGTTVTVSS VL: QIVLSQSPPILSASPGARVTMTCRASSSVNYMHWYQQKPGSSPKPWIYATSNLASGVPVRFSGSGSGTSYSLTISRVEAEDAATYYCQQWSSNPPTFGGGTKLEIKR

Return:
1: 7.23e-05; 2: 0.000772; 3: 0.000597; 4: 2.67e-05
